# key: entry, value: Ki
system under test: CDK2/cyclin A (Homo sapiens, UniProt P24941)
Construct: cyclin A: E. coli
protocol notes: Inhibition of CDK2/Cyclin A Retinoblastoma Kinase Activity
recorded conditions: apparent Ki
Return type: number; implicit unit nM.

Completed entries (count: 5):
mol	system under test	readout	value
OCCc1cccc2[nH]c(-c3n[nH]c4ccc(-c5cncc6ccccc56)cc34)nc12	CDK2/cyclin A (Homo sapiens, UniProt P24941)	Ki	1
Oc1cc(F)c(-c2ccc3[nH]nc(-c4nc5ccccc5[nH]4)c3c2)c(F)c1	CDK2/cyclin A (Homo sapiens, UniProt P24941)	Ki	73
Cc1c(O)cccc1-c1ccc2[nH]nc(/C=C/c3ccccc3)c2c1	CDK2/cyclin A (Homo sapiens, UniProt P24941)	Ki	62
c1ccc2c(-c3ccc4[nH]nc(-c5nc6ccccc6[nH]5)c4c3)cncc2c1	CDK2/cyclin A (Homo sapiens, UniProt P24941)	Ki	1
c1ccc2c(-c3ccc4[nH]nc(-c5nc6c(CN7CCCC7)cccc6[nH]5)c4c3)cncc2c1	CDK2/cyclin A (Homo sapiens, UniProt P24941)	Ki	1

Give the measured Ki of CC(=O)Nc1cccc2c(-c3ccc4[nH]nc(-c5nc6ccccc6[nH]5)c4c3)cncc12 .
1

What about this compound? Cc1c(-c2ccncc2)cncc1-c1ccc2[nH]nc(-c3nc4c(CN(C)C)cccc4[nH]3)c2c1
1.1
